Experiment: Plasma clearance in Beagle dog at 0.05 mg/kg
Format: ADME, organism-based, Canis lupus familiaris
Readout label: clearance (mL/min/kg)

[a] CC[C@H](Nc1ncnc2c1nc(-c1cnn(CC)c1C)n2C)C(=O)N1C[C@@H](C)O[C@@H](C)C1
[b] CCn1ncc(-c2nc3c(O[C@H]4CCN(C(=O)C5CC5)C4)ncnc3n2C)c1C
Which of the two gives a bigger number for clearance: a or b ? Reply briefly: the label of your chosen item.
a
(a: 7.9 mL/min/kg, b: 4.1 mL/min/kg)

====

Target: Phosphodiesterase 1 (Homo sapiens, UniProt P54750+Q01064+Q14123)
Experiment: Inhibition of PDE1 (unknown origin)
Assay type: protein assay
// reported IC50 per item

Look over these answered cases.
// lookup IC50 for `CCn1ncc(-c2nc3c(O[C@H]4CCN(C(=O)C5CCOCC5)C4)ncnc3n2C)c1C`
> 50 µM

Which IC50 value belongs to `CCC(=O)N1CC[C@H](Nc2ncnc3c2nc(-c2cnn(CC)c2C)n3C)C1` ?
> 20 µM

// IC50 lookup, key: `CCn1ncc(-c2nc3c(N4CCC(n5c(=O)[nH]c6ncccc65)CC4)ncnc3n2C)c1C`
2.35 µM

Let us examine a further case.
GET /values?readout=IC50&item= `CCn1ncc(-c2nc3c(N[C@H]4CCN(C(=O)C5CCOCC5)C4)ncnc3n2C)c1C`
> 20 µM

====

Experiment: Volume of distribution in Wistar Han rat
Type: ADME
Details: in vivo
Readout label: Vd (L/kg)

Some solved cases for reference:
Give its Vd value. Item: `CCn1ncc(-c2nc3c(N[C@H]4CCN(C(=O)C5CCOCC5)C4)ncnc3n2C)c1C`
1.7

// Vd lookup, key: `CCn1ncc(-c2nc3c(O[C@H]4CCN(C(=O)C5CCOCC5)C4)ncnc3n2C)c1C`
1.2

Data request, read-out Vd, for `CCn1ncc(-c2nc3c(O[C@H]4CCN(C(=O)C5CC5)C4)ncnc3n2C)c1C`
0.8

Which Vd is reported for this compound? `CCn1ncc(-c2nc3c(N[C@H]4CCN(C(=O)C5CC5)C4)ncnc3n2C)c1C`
1.1

[a] CCn1ncc(-c2nc3c(N4CCC(n5c(=O)[nH]c6ncccc65)CC4)ncnc3n2C)c1C
[b] CC[C@H](Nc1ncnc2c1nc(-c1cnn(CC)c1C)n2C)C(=O)N1C[C@@H](C)O[C@@H](C)C1
[c] CCC(=O)N1CC[C@H](Nc2ncnc3c2nc(-c2cnn(CC)c2C)n3C)C1
Sort by Vd, descending. Output the labels ranked as instructed.
c, b, a
(c: 1.8 L/kg, b: 1.1 L/kg, a: 0.4 L/kg)

====

Target: Phosphatidylinositol 4,5-bisphosphate 3-kinase catalytic subunit delta isoform (Homo sapiens, UniProt O00329)
Sequence (O00329 whole entry): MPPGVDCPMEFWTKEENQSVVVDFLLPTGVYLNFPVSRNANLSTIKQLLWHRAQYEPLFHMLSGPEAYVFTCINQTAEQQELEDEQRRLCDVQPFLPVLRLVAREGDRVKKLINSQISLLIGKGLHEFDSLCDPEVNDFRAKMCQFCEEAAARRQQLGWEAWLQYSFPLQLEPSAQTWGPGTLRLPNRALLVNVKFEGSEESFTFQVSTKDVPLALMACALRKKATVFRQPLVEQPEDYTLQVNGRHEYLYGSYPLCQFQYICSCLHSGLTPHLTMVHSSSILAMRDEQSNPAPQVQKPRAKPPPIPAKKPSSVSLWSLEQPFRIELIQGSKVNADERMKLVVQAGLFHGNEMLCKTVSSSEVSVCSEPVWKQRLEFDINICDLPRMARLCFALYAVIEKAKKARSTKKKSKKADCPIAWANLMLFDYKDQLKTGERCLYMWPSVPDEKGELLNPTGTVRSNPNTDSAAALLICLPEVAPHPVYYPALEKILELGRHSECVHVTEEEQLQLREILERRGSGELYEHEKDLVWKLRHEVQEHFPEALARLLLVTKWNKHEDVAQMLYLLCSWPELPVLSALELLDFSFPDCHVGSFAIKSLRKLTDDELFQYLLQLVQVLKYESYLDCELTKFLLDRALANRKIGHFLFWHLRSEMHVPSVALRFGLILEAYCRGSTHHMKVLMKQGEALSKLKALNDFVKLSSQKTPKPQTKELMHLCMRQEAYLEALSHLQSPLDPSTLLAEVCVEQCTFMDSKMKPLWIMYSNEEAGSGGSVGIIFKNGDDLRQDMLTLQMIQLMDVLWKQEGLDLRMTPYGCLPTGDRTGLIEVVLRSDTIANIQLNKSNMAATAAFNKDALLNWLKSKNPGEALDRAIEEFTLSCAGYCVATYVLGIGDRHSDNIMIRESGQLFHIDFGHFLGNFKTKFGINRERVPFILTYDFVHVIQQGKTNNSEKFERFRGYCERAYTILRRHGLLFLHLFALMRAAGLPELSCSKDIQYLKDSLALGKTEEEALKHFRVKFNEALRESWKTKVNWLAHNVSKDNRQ
Assay: Inhibition of PI3Kdelta in human Ramos cells assessed as reduction in anti-IgM-antibody-induced phosphorylation of AKT at Ser473 residue preincubated for 20 mins followed by anti-IgM antibody stimulation and measured after 30 mins by alphascreen assay
Assay type: cell-based
pIC50: −log10 of the molar value.
Readout label: pIC50

Answered examples (5):
pIC50 for `CCn1ncc(-c2nc3c(N[C@H]4CC[C@@H](C(=O)N5CCOCC5)C4)ncnc3n2C)c1C` ?
6.82

Find the recorded pIC50 belonging to CCn1ncc(-c2nc3c(CC4CCN(C(=O)C5CCOCC5)C4)ncnc3n2C)c1C (racemic) and report it.
5.08

I'd like to know its pIC50. The compound in question is `CCC(=O)N1CC[C@H](Nc2ncnc3c2nc(-c2cnn(CC)c2C)n3C)C1`
7.62

// lookup pIC50 for `CCC(=O)N1CC(Nc2ncnc3c2nc(-c2cnn(CC)c2C)n3C)C1`
5.66

Entry under review: `CCn1ncc(-c2nc3c(Oc4csc(C(=O)N5CCOCC5)c4)ncnc3n2C)c1C` . Reported pIC50?
6.01

[a] CCn1ncc(-c2nc3c(O[C@H]4CCN(C(=O)C5CC5)C4)ncnc3n2C)c1C
[b] CCC(=O)N1CCC[C@H](Nc2ncnc3c2nc(-c2cnn(CC)c2C)n3C)C1
[c] CCn1ncc(-c2nc3c(O[C@H]4CCN(C(=O)C5CCOCC5)C4)ncnc3n2C)c1C
Order the records, beginning with the lowest pIC50 and ending with the highest. Write out the labels following the order that was asked for.
b, a, c

[P] CCn1ncc(-c2nc3c(NC4CN(C(=O)C5CCOCC5)C4)ncnc3n2C)c1C
[Q] CCC(=O)N1CC[C@@H](Nc2ncnc3c2nc(-c2cnn(CC)c2C)n3C)C1
[R] CCn1ncc(-c2nc3c(N4CCC(n5c(=O)[nH]c6ncccc65)CC4)ncnc3n2C)c1C
Endpoint returns the given compounds ordered by ascending pIC50. Reply with the item labels sorted in the order that was asked for.
P, Q, R
(P: 5.56, Q: 6.73, R: 7.20)
